tested on: MAGL (Homo sapiens (Human), UniProt Q99685)
Sequence (Q99685 whole entry): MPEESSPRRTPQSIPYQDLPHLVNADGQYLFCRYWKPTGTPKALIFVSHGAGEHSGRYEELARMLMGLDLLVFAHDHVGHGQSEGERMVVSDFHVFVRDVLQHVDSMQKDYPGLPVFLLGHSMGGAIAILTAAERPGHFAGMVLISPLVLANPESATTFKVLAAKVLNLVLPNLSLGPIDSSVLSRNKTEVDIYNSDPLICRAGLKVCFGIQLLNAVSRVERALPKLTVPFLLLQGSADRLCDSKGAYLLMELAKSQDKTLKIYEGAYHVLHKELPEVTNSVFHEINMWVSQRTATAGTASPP
experiment summary: In vitro competitive activity-based protein profiling, MAGL (human)
Assay type: biochemical
assay context: 10 μM, human proteome; read-out: MAGL % inh. 10 μM (human)
measured endpoint: inhibition at 10 µM

The value of inhibition at 10 µM recorded for CC(=O)N(C)c1cnn(C(=O)N2CC3CN(Cc4ccc(N5CCOCC5)cc4)CC3C2)c1 (stereo not shown) when tested on MAGL (Homo sapiens (Human), UniProt Q99685) reads ≥ 75%

The value of inhibition at 10 µM recorded for CC(=O)N(C)c1cnn(C(=O)N2CCC3(CCN(Cc4ccc(F)cc4)C3)C2)c1 (stereo not shown) when tested on MAGL (Homo sapiens (Human), UniProt Q99685) reads ≥ 75%

The value of inhibition at 10 µM recorded for CC(=O)N(C)c1cnn(C(=O)N2CCC3(CCN(Cc4cccc(C)c4)C3)C2)c1 (stereo not shown) when tested on MAGL (Homo sapiens (Human), UniProt Q99685) reads ≥ 75%

The value of inhibition at 10 µM recorded for CC(=O)N(C)c1cnn(C(=O)N2CCC3(CCN(Cc4ccccc4C)C3)C2)c1 (stereo not shown) when tested on MAGL (Homo sapiens (Human), UniProt Q99685) reads ≥ 75%

====

tested on: FAAH (Mus musculus (Mouse), UniProt O08914)
Sequence (O08914 whole entry): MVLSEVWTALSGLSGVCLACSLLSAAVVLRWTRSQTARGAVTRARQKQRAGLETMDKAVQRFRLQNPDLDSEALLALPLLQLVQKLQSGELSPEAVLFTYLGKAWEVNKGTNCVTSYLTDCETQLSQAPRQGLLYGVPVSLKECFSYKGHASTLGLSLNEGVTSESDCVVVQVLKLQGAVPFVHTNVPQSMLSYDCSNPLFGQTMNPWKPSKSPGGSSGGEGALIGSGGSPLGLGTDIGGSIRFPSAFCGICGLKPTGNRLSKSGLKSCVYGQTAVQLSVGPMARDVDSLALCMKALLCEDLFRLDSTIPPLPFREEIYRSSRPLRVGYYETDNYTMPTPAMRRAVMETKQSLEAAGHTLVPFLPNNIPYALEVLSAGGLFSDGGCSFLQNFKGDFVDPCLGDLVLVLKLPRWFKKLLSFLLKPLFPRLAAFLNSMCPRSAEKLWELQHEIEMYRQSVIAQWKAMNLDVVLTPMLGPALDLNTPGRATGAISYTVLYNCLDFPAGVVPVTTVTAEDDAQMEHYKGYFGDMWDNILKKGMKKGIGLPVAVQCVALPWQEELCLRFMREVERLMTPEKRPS
experiment summary: In vitro competitive activity-based protein profiling, FAAH (mouse)
Type: biochemical
assay context: 1 μM, read-out: FAAH % inh. 1 μM (mouse)
Could you please report measured inhibition at 1 µM for the items listed next?

inhibition at 1 µM reading for CC(=O)N(C)c1cnn(C(=O)N2CC3(CCN(Cc4ccccc4C)CC3)C2)c1 [Example 89] : 25 to 50%

inhibition at 1 µM reading for CC(=O)N(C)c1cnn(C(=O)N2CC3CN(Cc4ccccc4N4CCCC4)CC3C2)c1 (stereo not shown) [Example 184] : 50 to 75%

inhibition at 1 µM reading for CC(=O)Nc1cnn(C(=O)N2CCN(Cc3ccc(C(F)(F)F)cc3N3CCCC3)CC2)c1 [Example 217] : 25 to 50%

inhibition at 1 µM reading for CC(=O)N(C)c1cnn(C(=O)N2CC3CN(Cc4ccc(N5CCCC5)c(Cl)c4)CC3C2)c1 (stereo not shown) [Example 123] : ≥ 75%

====

tested on: FAAH (Mus musculus (Mouse))
experiment summary: In vitro competitive activity-based protein profiling, FAAH (mouse)
Assay type: biochemical
assay context: 1 μM, read-out: FAAH % inh. 1 μM (mouse)
measured endpoint: inhibition at 1 µM

inhibition at 1 µM reading for CC(=O)N(C)c1cnn(C(=O)N2CCC3(CC2)CN(Cc2ccc(CN4CCOCC4)cc2)C3)c1 [Example 233] : 0 to 25%

inhibition at 1 µM reading for CC(=O)N(C)c1cnn(C(=O)N2CC3CN(Cc4c(Cl)cccc4Cl)CC3C2)c1 (stereo not drawn) [Example 111] : ≥ 75%

inhibition at 1 µM reading for CC(=O)N(C)c1cnn(C(=O)N2CC3CN(Cc4ccc(-c5cccnn5)cc4Cl)CC3C2)c1 (stereo not drawn) [Example 260] : ≥ 75%

inhibition at 1 µM reading for CC(=O)N(C)c1cnn(C(=O)N2CCC3(CCN(Cc4cc(C(F)(F)F)ccc4N4CCCC4)C3)C2)c1 (stereo not drawn) [Example 74] : 50 to 75%

inhibition at 1 µM reading for CC(=O)N(C)c1cnn(C(=O)N2CC3CN(Cc4ccc(F)c(N5CCCC5)c4)CC3C2)c1 (stereo not drawn) [Example 100] : ≥ 75%

inhibition at 1 µM reading for CC(=O)N(C)c1cnn(C(=O)N2CC3CN(Cc4ccc(C(F)(F)F)c(N5CCOCC5)c4)CC3C2)c1 (stereo not drawn) [Example 124] : ≥ 75%

inhibition at 1 µM reading for CC(=O)N(C)c1cnn(C(=O)N2CCC3(CC2)CN(Cc2ccc(N4CCOCC4)cc2C)C3)c1 [Example 29] : 25 to 50%

inhibition at 1 µM reading for CC(=O)N(C)c1cnn(C(=O)N2CC3CN(Cc4ccc(Cl)cc4Cl)CC3C2)c1 (stereo not drawn) [Example 113] : ≥ 75%

inhibition at 1 µM reading for CC(=O)N(C)c1cnn(C(=O)N2CC3CN(Cc4cccc(N5CCOCC5)c4)CC3C2)c1 (stereo not drawn) [Example 121] : 50 to 75%

inhibition at 1 µM reading for CC(=O)N(C)c1cnn(C(=O)N2CC3CN(Cc4ccc(F)cc4)CC3C2)c1 (stereo not drawn) [Example 178] : ≥ 75%

inhibition at 1 µM reading for CC(=O)N(C)c1cnn(C(=O)N2CCN(Cc3cccc(Cl)c3)CC2)c1 [Example 193] : ≥ 75%

inhibition at 1 µM reading for CC(=O)N(C)c1cnn(C(=O)N2C[C@H]3C[C@H](N(C)Cc4cc(N5CCCC5)ccc4C(F)(F)F)C[C@H]3C2)c1 [Example 142] : ≥ 75%

inhibition at 1 µM reading for CC(=O)N(C)c1cnn(C(=O)N2C[C@H]3C[C@H](N(C)Cc4ccc(Cl)cc4)C[C@H]3C2)c1 [Example 148] : ≥ 75%

inhibition at 1 µM reading for CC(=O)N(C)c1cnn(C(=O)N2CC3CN(Cc4ccc(N5CCOCC5)cc4)CC3C2)c1 (stereo not drawn) [Example 15] : 25 to 50%

inhibition at 1 µM reading for CS(=O)(=O)Nc1cnn(C(=O)N2CCN(Cc3ccc(-c4nccs4)cc3C(F)(F)F)CC2)c1 [Example 291] : ≥ 75%

inhibition at 1 µM reading for CC(=O)N(C)c1cnn(C(=O)N2C[C@H]3C[C@H](N(C)Cc4cc(Cl)ccc4Cl)C[C@H]3C2)c1 [Example 165] : ≥ 75%

inhibition at 1 µM reading for CC(=O)N(C)c1cnn(C(=O)N2C[C@H]3C[C@@H](N(C)Cc4cc(N5C6CCC5COC6)cc(C(F)(F)F)c4)C[C@H]3C2)c1 [Example 151] : ≥ 75%

inhibition at 1 µM reading for CC(=O)N(C)c1cnn(C(=O)N2CC3CN(Cc4ccc(N5CCOCC5)cc4C(F)(F)F)CC3C2)c1 (stereo not drawn) [Example 131] : ≥ 75%

inhibition at 1 µM reading for CC(=O)N(C)c1cnn(C(=O)N2CCC3(CCN(Cc4ccccc4Cl)C3)C2)c1 (stereo not drawn) [Example 50] : ≥ 75%

inhibition at 1 µM reading for CC(=O)N(C)c1cnn(C(=O)N2CC3(CCN(Cc4ccccc4C(F)(F)F)CC3)C2)c1 [Example 90] : ≥ 75%

inhibition at 1 µM reading for CS(=O)(=O)Nc1cnn(C(=O)N2CCC3(CCN(Cc4cc(Cl)ccc4C(F)(F)F)C3)CC2)c1 [Example 276] : ≥ 75%

inhibition at 1 µM reading for CC(=O)N(C)c1cnn(C(=O)N2CCC3(CC2)CN(Cc2cccc(Oc4ccccc4)c2)C3)c1 [Example 235] : ≥ 75%

inhibition at 1 µM reading for CS(=O)(=O)Nc1cnn(C(=O)N2CCN(Cc3cc(N4CCCC4)cc(C(F)(F)F)c3)CC2)c1 [Example 295] : ≥ 75%

inhibition at 1 µM reading for CC(=O)N(C)c1cnn(C(=O)N2CCC3(CCN(Cc4ccccc4F)C3)C2)c1 (stereo not drawn) [Example 52] : ≥ 75%

inhibition at 1 µM reading for CC(=O)N(C)c1cnn(C(=O)N2CCC3(CCN(Cc4ccc(N5CCCC5)cc4)C3)C2)c1 (stereo not drawn) [Example 47] : ≥ 75%

inhibition at 1 µM reading for CC(=O)N(C)c1cnn(C(=O)N2CCC3(CCN(Cc4ccc(-c5cccnn5)cc4Cl)C3)C2)c1 (stereo not drawn) [Example 263] : ≥ 75%

inhibition at 1 µM reading for CC(=O)N(C)c1cnn(C(=O)N2CC3CN(Cc4cccc(Oc5cccc(Cl)c5)c4)CC3C2)c1 (stereo not drawn) [Example 244] : ≥ 75%

inhibition at 1 µM reading for CC(=O)N(C)c1cnn(C(=O)N2CCN(Cc3ccc(N4CCOCC4)cc3C)CC2)c1 [Example 204] : ≥ 75%

inhibition at 1 µM reading for CC(=O)N(C)c1cnn(C(=O)N2CC3(CCN(Cc4cccc(C)c4)CC3)C2)c1 [Example 83] : 25 to 50%

inhibition at 1 µM reading for CC(=O)N(C)c1cnn(C(=O)N2CCC3(CCN(Cc4ccc(C)cc4Cl)C3)C2)c1 (stereo not drawn) [Example 55] : ≥ 75%

====

tested on: FAAH (Mus musculus (Mouse), UniProt O08914)
experiment summary: In vitro competitive activity-based protein profiling, FAAH (mouse)
Format: biochemical
assay context: 1 μM, read-out: FAAH % inh. 1 μM (mouse)
Could you please report measured inhibition at 1 µM for the items listed next?

inhibition at 1 µM reading for CC(=O)N(C)c1cnn(C(=O)N2C[C@H]3C[C@H](NCc4ccccc4Cl)C[C@H]3C2)c1 : ≥ 75%

inhibition at 1 µM reading for CC(=O)N(C)c1cnn(C(=O)N2CC3CN(Cc4cccc(Oc5ccccc5)c4)CC3C2)c1 (stereo not drawn) : ≥ 75%

inhibition at 1 µM reading for CC(=O)N(C)c1cnn(C(=O)N2CC3CN(Cc4cc(Cl)cc(OCc5ccccc5)c4)CC3C2)c1 (stereo not drawn) : ≥ 75%

inhibition at 1 µM reading for CC(=O)N(C)c1cnn(C(=O)N2CCN(Cc3ccc(Cl)cc3)CC2)c1 : ≥ 75%

inhibition at 1 µM reading for CC(=O)N(C)c1cnn(C(=O)N2CCN(Cc3ccc(CN4CCOCC4)cc3)CC2)c1 : 0 to 25%

inhibition at 1 µM reading for CC(=O)N(C)c1cnn(C(=O)N2CC3(CCN(Cc4ccc(-c5ccccc5)cc4C)CC3)C2)c1 : ≥ 75%

All values here come from patent US10323038B2.
